test system: 786-0 complex spheroids with HUVEC/MSC, growth % test/control; assay: Anticancer human tumor 786-0 cell line growth inhibition [AhR]; conditions: second compound 1 µM; first compound 3.16 µM; stronger effect = lower value;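 also: compound exposure lasted seven days before the read-out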
metric: viability, T/C (%)

{"compound": "CC1(C)CCC(CN2CCN(c3ccc(C(=O)NS(=O)(=O)c4ccc(NCC5CCOCC5)c([N+](=O)[O-])c4)c(Oc4cnc5[nH]ccc5c4)c3)CC2)=C(c2ccc(Cl)cc2)C1 + Cc1ccccc1N=Nc1ccc(NC(=O)c2ccnn2C)c(C)c1", "metric": "viability, T/C", "numericValue": 91.8}
{"compound": "COc1ccc([C@@H](O)c2cc(-c3ncnc4cc(N5CCOCC5)ccc34)c(F)cc2Cl)nn1 + Cc1ccccc1N=Nc1ccc(NC(=O)c2ccnn2C)c(C)c1", "metric": "viability, T/C", "numericValue": 97.1}
{"compound": "CC(C)c1c(-c2ccccc2)nc2c(C#N)c[nH]n2c1=O + Cc1cncc(-c2nc(NCCc3c[nH]c4ccccc34)c3ncn(C(C)C)c3n2)c1", "metric": "viability, T/C", "numericValue": 116}
{"compound": "NS(=O)(=O)OCC1CC(n2ccc3c(NC4CCc5ccccc54)ncnc32)CC1O (centres undefined) + Cc1cncc(-c2nc(NCCc3c[nH]c4ccccc34)c3ncn(C(C)C)c3n2)c1", "metric": "viability, T/C", "numericValue": 8.16}
{"compound": "COc1cccc2c1C(=O)c1c(O)c3c(c(O)c1C2=O)CC(O)(C(=O)CO)CC3OC1CC(N)C(O)C(C)O1 (centres undefined) + CC(CO)NC(=O)c1cc(-c2ccc(Cl)cc2)nn(-c2cnn(C)c2)c1=O", "metric": "viability, T/C", "numericValue": 0.45}
{"compound": "COc1cc(C2c3cc4c(cc3C(OC3OC5COC(C)OC5C(O)C3O)C3COC(=O)C23)OCO4)cc(OC)c1O (centres undefined) + CC(CO)NC(=O)c1cc(-c2ccc(Cl)cc2)nn(-c2cnn(C)c2)c1=O", "metric": "viability, T/C", "numericValue": 16}
{"compound": "O=C(C=Cc1cccc(S(=O)(=O)Nc2ccccc2)c1)NO + CC(CO)NC(=O)c1cc(-c2ccc(Cl)cc2)nn(-c2cnn(C)c2)c1=O", "metric": "viability, T/C", "numericValue": 84.7}
{"compound": "CC1COCCN1c1cc(C2(S(C)(=N)=O)CC2)nc(-c2ccnc3[nH]ccc23)n1 (centres undefined) + Cc1ccccc1N=Nc1ccc(NC(=O)c2ccnn2C)c(C)c1", "metric": "viability, T/C", "numericValue": 79.5}
{"compound": "CC(C)c1c(-c2ccccc2)nc2c(C#N)c[nH]n2c1=O + Cc1ccccc1N=Nc1ccc(NC(=O)c2ccnn2C)c(C)c1", "metric": "viability, T/C", "numericValue": 96.3}
{"compound": "COc1ccc([C@@H](O)c2cc(-c3ncnc4cc(N5CCOCC5)ccc34)c(F)cc2Cl)nn1 + CC(CO)NC(=O)c1cc(-c2ccc(Cl)cc2)nn(-c2cnn(C)c2)c1=O", "metric": "viability, T/C", "numericValue": 114}
{"compound": "NS(=O)(=O)OCC1CC(n2ccc3c(NC4CCc5ccccc54)ncnc32)CC1O (centres undefined) + CC(CO)NC(=O)c1cc(-c2ccc(Cl)cc2)nn(-c2cnn(C)c2)c1=O", "metric": "viability, T/C", "numericValue": 4}
{"compound": "COc1cc(C2c3cc4c(cc3C(OC3OC5COC(C)OC5C(O)C3O)C3COC(=O)C23)OCO4)cc(OC)c1O (centres undefined) + Cc1ccccc1N=Nc1ccc(NC(=O)c2ccnn2C)c(C)c1", "metric": "viability, T/C", "numericValue": 26.8}
{"compound": "COc1ccc([C@@H](O)c2cc(-c3ncnc4cc(N5CCOCC5)ccc34)c(F)cc2Cl)nn1 + Cc1cncc(-c2nc(NCCc3c[nH]c4ccccc34)c3ncn(C(C)C)c3n2)c1", "metric": "viability, T/C", "numericValue": 103}
{"compound": "COc1cc(C2c3cc4c(cc3C(OC3OC5COC(C)OC5C(O)C3O)C3COC(=O)C23)OCO4)cc(OC)c1O (centres undefined) + Cc1cncc(-c2nc(NCCc3c[nH]c4ccccc34)c3ncn(C(C)C)c3n2)c1", "metric": "viability, T/C", "numericValue": 32.3}
{"compound": "O=C(c1cc(Cc2n[nH]c(=O)c3ccccc23)ccc1F)N1CCN(C(=O)C2CC2)CC1 + CC(CO)NC(=O)c1cc(-c2ccc(Cl)cc2)nn(-c2cnn(C)c2)c1=O", "metric": "viability, T/C", "numericValue": 101}
{"compound": "NS(=O)(=O)OCC1CC(n2ccc3c(NC4CCc5ccccc54)ncnc32)CC1O (centres undefined) + Cc1ccccc1N=Nc1ccc(NC(=O)c2ccnn2C)c(C)c1", "metric": "viability, T/C", "numericValue": 9.47}
{"compound": "O=C(c1cc(Cc2n[nH]c(=O)c3ccccc23)ccc1F)N1CCN(C(=O)C2CC2)CC1 + Cc1ccccc1N=Nc1ccc(NC(=O)c2ccnn2C)c(C)c1", "metric": "viability, T/C", "numericValue": 107}
{"compound": "Nc1ccccc1NC(=O)c1ccc(CNC(=O)OCc2cccnc2)cc1 + CC(CO)NC(=O)c1cc(-c2ccc(Cl)cc2)nn(-c2cnn(C)c2)c1=O", "metric": "viability, T/C", "numericValue": 68.5}
{"compound": "Nc1ccccc1NC(=O)c1ccc(CNC(=O)OCc2cccnc2)cc1 + Cc1ccccc1N=Nc1ccc(NC(=O)c2ccnn2C)c(C)c1", "metric": "viability, T/C", "numericValue": 94.3}
{"compound": "CC1(C)CCC(CN2CCN(c3ccc(C(=O)NS(=O)(=O)c4ccc(NCC5CCOCC5)c([N+](=O)[O-])c4)c(Oc4cnc5[nH]ccc5c4)c3)CC2)=C(c2ccc(Cl)cc2)C1 + CC(CO)NC(=O)c1cc(-c2ccc(Cl)cc2)nn(-c2cnn(C)c2)c1=O", "metric": "viability, T/C", "numericValue": 104}
{"compound": "CC1COCCN1c1cc(C2(S(C)(=N)=O)CC2)nc(-c2ccnc3[nH]ccc23)n1 (centres undefined) + CC(CO)NC(=O)c1cc(-c2ccc(Cl)cc2)nn(-c2cnn(C)c2)c1=O", "metric": "viability, T/C", "numericValue": 41.3}
{"compound": "COc1cc(Nc2ncc3c(n2)-c2ccc(Cl)cc2C(c2c(F)cccc2OC)=NC3)ccc1C(=O)O + Cc1ccccc1N=Nc1ccc(NC(=O)c2ccnn2C)c(C)c1", "metric": "viability, T/C", "numericValue": 55.5}
{"compound": "O=C(C=Cc1cccc(S(=O)(=O)Nc2ccccc2)c1)NO + Cc1cncc(-c2nc(NCCc3c[nH]c4ccccc34)c3ncn(C(C)C)c3n2)c1", "metric": "viability, T/C", "numericValue": 96.7}
{"compound": "COc1cc(Nc2ncc3c(n2)-c2ccc(Cl)cc2C(c2c(F)cccc2OC)=NC3)ccc1C(=O)O + CC(CO)NC(=O)c1cc(-c2ccc(Cl)cc2)nn(-c2cnn(C)c2)c1=O", "metric": "viability, T/C", "numericValue": 44}
